Cited source: ChEMBL document CHEMBL2218924

Recorded residual activity values for a group of molecules are listed next.
Target: Mitogen-activated protein kinase kinase kinase 7 (Homo sapiens) (UniProt O43318)
Sequence (whole entry): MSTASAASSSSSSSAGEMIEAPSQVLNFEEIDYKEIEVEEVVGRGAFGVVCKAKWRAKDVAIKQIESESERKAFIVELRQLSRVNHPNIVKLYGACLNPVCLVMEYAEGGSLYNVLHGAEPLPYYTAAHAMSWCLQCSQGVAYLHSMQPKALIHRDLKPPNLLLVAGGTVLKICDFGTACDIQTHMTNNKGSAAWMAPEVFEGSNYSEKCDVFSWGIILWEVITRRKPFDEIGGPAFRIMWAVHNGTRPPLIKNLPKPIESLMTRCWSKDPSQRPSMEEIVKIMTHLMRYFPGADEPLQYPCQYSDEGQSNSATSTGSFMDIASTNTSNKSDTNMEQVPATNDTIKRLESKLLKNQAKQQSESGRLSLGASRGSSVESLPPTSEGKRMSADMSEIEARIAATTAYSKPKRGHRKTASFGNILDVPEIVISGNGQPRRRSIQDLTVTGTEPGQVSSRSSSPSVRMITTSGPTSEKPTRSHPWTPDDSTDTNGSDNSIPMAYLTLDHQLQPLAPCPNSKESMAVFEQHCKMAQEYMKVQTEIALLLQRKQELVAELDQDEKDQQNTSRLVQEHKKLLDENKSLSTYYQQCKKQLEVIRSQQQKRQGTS
Conditions: at 1 µM

{"columns": ["smiles.data", "residual activity [%]"],
 "data": [
  ["Nc1nc(Nc2ccc(S(N)(=O)=O)cc2)nn1C(=S)Nc1c(F)cccc1F", 9],
  ["CNc1cc2c(Nc3cccc(Br)c3)ncnc2cn1", 91],
  ["O=[N+]([O-])c1ccc(-c2nc(-c3ccc(F)cc3)c(-c3ccncc3)[nH]2)cc1", 104],
  ["O=C1c2ccccc2-[n+]2ccc3c([nH]c4ccccc43)c21", 93],
  ["CCN(CC)CCCCN1c2ccccc2Oc2ccc(Cl)cc21", 97],
  ["Cc1cc(Nc2nc(-c3ccccc3)nc3ccccc23)n[nH]1", 67]
]}

###

target: MAP kinase-activated protein kinase 2 (Homo sapiens) (UniProt P49137); conditions: at 1 µM
Sequence (P49137 whole entry, looked up): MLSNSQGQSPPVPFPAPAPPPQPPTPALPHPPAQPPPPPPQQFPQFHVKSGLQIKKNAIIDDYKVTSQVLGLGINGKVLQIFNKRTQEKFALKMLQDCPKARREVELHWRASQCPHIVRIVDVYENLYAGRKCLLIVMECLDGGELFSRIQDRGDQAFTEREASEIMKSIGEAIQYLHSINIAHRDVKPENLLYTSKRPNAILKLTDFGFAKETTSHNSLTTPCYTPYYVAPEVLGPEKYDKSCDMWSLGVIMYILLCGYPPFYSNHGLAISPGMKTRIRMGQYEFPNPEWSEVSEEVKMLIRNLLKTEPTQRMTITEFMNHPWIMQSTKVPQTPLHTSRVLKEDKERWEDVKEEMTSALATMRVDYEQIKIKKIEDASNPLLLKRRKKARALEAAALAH
residual activity reference
measure.name: residual activity (%)

{"columns": ["compound", "measured.on", "measure.name", "test.value"],
 "data": [
  ["CC(C)n1cnc2/c(=N/c3cccc(Cl)c3)nc(NCCO)[nH]c21", "MAP kinase-activated protein kinase 2 (Homo sapiens) (UniProt P49137)", "residual activity", 91],
  ["Cn1cnc2cc3c(Nc4cccc(Br)c4)ncnc3cc21", "MAP kinase-activated protein kinase 2 (Homo sapiens) (UniProt P49137)", "residual activity", 108],
  ["COc1cc2ncnc(N3CCN(C(=O)Nc4ccc(Oc5ccccc5)cc4)CC3)c2cc1OC", "MAP kinase-activated protein kinase 2 (Homo sapiens) (UniProt P49137)", "residual activity", 99],
  ["O=c1c2ccccc2[nH]c(=S)n1CCN1CCC(=C(c2ccc(F)cc2)c2ccc(F)cc2)CC1", "MAP kinase-activated protein kinase 2 (Homo sapiens) (UniProt P49137)", "residual activity", 97],
  ["O=C1NC(=O)c2cc(Nc3ccc(F)cc3)c(Nc3ccc(F)cc3)cc21", "MAP kinase-activated protein kinase 2 (Homo sapiens) (UniProt P49137)", "residual activity", 90],
  ["CC[n+]1c(/C=C/N(C)c2ccccc2)n(-c2ccccc2)c2ccc(-c3nc4ccccc4s3)cc21", "MAP kinase-activated protein kinase 2 (Homo sapiens) (UniProt P49137)", "residual activity", 95],
  ["N#CCCc1ccc2c(c1)-c1[nH]c3ccc([N+](=O)[O-])cc3c1CC(=O)N2", "MAP kinase-activated protein kinase 2 (Homo sapiens) (UniProt P49137)", "residual activity", 57],
  ["CCC(=O)Nc1ccc2ncnc(Nc3cccc(Br)c3)c2c1", "MAP kinase-activated protein kinase 2 (Homo sapiens) (UniProt P49137)", "residual activity", 88],
  ["O=C1Nc2ccc(Br)cc2/C1=C\\c1cc2c([nH]1)CCCC2", "MAP kinase-activated protein kinase 2 (Homo sapiens) (UniProt P49137)", "residual activity", 108],
  ["CC#CC(=O)Nc1cc2c(Nc3ccc(F)c(Cl)c3)ncnc2cn1", "MAP kinase-activated protein kinase 2 (Homo sapiens) (UniProt P49137)", "residual activity", 89],
  ["O=C(O)c1ccc2c3c1cccc3c(=O)n1c3ccccc3nc21", "MAP kinase-activated protein kinase 2 (Homo sapiens) (UniProt P49137)", "residual activity", 86],
  ["COc1cc2ncnc(Nc3ccc(O)c(Br)c3)c2cc1OC", "MAP kinase-activated protein kinase 2 (Homo sapiens) (UniProt P49137)", "residual activity", 106],
  ["CC(=O)O/N=C1\\C(=C2\\C(=O)Nc3cc(Br)ccc32)Nc2ccccc21", "MAP kinase-activated protein kinase 2 (Homo sapiens) (UniProt P49137)", "residual activity", 87],
  ["O=C1NC(=O)c2c1c1c3ccccc3[nH]c1c1[nH]c3cc(Br)ccc3c21", "MAP kinase-activated protein kinase 2 (Homo sapiens) (UniProt P49137)", "residual activity", 98],
  ["O=C(Nc1cccc(Nc2nccc(Nc3cccc(C(F)(F)F)c3)n2)c1)C1CC1", "MAP kinase-activated protein kinase 2 (Homo sapiens) (UniProt P49137)", "residual activity", 115],
  ["NC(=O)c1ccc2[nH]c(-c3ccc(Oc4ccc(Cl)cc4)cc3)nc2c1", "MAP kinase-activated protein kinase 2 (Homo sapiens) (UniProt P49137)", "residual activity", 103],
  ["O=C1Nc2ccccc2/C1=C1/Nc2ccccc2/C1=N\\OCCC(O)CO (stereo not drawn)", "MAP kinase-activated protein kinase 2 (Homo sapiens) (UniProt P49137)", "residual activity", 78],
  ["COc1ccc(S(=O)(=O)N(CCO)c2ccccc2CN(C)C/C=C/c2ccc(Cl)cc2)cc1", "MAP kinase-activated protein kinase 2 (Homo sapiens) (UniProt P49137)", "residual activity", 78],
  ["Nc1cccc(-c2cc3c(Oc4cccc(O)c4)ncnc3[nH]2)c1", "MAP kinase-activated protein kinase 2 (Homo sapiens) (UniProt P49137)", "residual activity", 71],
  ["Cc1ccc(S(=O)(=O)/C=C/C#N)cc1", "MAP kinase-activated protein kinase 2 (Homo sapiens) (UniProt P49137)", "residual activity", 93],
  ["CO[C@H]1[C@@H](OC)C[C@H](C)[C@@H](OC)C2=CC(=O)C=C(NC(=O)/C(C)=C/C=C/[C@H](OC)[C@@H](OC(N)=O)/C(C)=C/[C@@H]1C)C2=O", "MAP kinase-activated protein kinase 2 (Homo sapiens) (UniProt P49137)", "residual activity", 101],
  ["O=C1NC(=O)/C(=C\\c2ccc3nccnc3c2)S1", "MAP kinase-activated protein kinase 2 (Homo sapiens) (UniProt P49137)", "residual activity", 87],
  ["COc1ccc(OC)c2c(=S)c3ccccc3[nH]c12", "MAP kinase-activated protein kinase 2 (Homo sapiens) (UniProt P49137)", "residual activity", 102],
  ["COc1ccc(C(=O)Nc2sc3c(c2C(N)=O)CCCC3)cc1OC", "MAP kinase-activated protein kinase 2 (Homo sapiens) (UniProt P49137)", "residual activity", 70],
  ["c1ccc(-c2n[nH]cc2-c2ccnc3ccccc23)nc1", "MAP kinase-activated protein kinase 2 (Homo sapiens) (UniProt P49137)", "residual activity", 101],
  ["Oc1c2ccccc2c2c3c(cccc13)N=N2", "MAP kinase-activated protein kinase 2 (Homo sapiens) (UniProt P49137)", "residual activity", 79],
  ["Cc1cccc(-c2[nH]c(C(C)(C)C)nc2-c2ccc3c(c2)OCO3)n1", "MAP kinase-activated protein kinase 2 (Homo sapiens) (UniProt P49137)", "residual activity", 92],
  ["O=C1c2ccccc2-[n+]2ccc3c([nH]c4ccccc43)c21", "MAP kinase-activated protein kinase 2 (Homo sapiens) (UniProt P49137)", "residual activity", 81],
  ["O=C1Nc2cc(Br)ccc2/C1=C1/Nc2ccccc2/C1=N\\O", "MAP kinase-activated protein kinase 2 (Homo sapiens) (UniProt P49137)", "residual activity", 96],
  ["c1ccc2c(-c3ccncc3)c[nH]c2c1", "MAP kinase-activated protein kinase 2 (Homo sapiens) (UniProt P49137)", "residual activity", 90],
  ["CNc1cc2c(Nc3cccc(Br)c3)ncnc2cn1", "MAP kinase-activated protein kinase 2 (Homo sapiens) (UniProt P49137)", "residual activity", 119],
  ["Cn1nc2c3c(cccc31)C(=O)c1ccccc1-2", "MAP kinase-activated protein kinase 2 (Homo sapiens) (UniProt P49137)", "residual activity", 77],
  ["COc1ccc(CNc2nc(N(CCO)CCO)nc3c2ncn3C(C)C)cc1", "MAP kinase-activated protein kinase 2 (Homo sapiens) (UniProt P49137)", "residual activity", 96]
]}
